Property: IC50; scope: individual compounds
EXPERIMENTAL_TARGET: AKT2 (Homo sapiens, UniProt P31751)
Sequence (P31751 whole entry): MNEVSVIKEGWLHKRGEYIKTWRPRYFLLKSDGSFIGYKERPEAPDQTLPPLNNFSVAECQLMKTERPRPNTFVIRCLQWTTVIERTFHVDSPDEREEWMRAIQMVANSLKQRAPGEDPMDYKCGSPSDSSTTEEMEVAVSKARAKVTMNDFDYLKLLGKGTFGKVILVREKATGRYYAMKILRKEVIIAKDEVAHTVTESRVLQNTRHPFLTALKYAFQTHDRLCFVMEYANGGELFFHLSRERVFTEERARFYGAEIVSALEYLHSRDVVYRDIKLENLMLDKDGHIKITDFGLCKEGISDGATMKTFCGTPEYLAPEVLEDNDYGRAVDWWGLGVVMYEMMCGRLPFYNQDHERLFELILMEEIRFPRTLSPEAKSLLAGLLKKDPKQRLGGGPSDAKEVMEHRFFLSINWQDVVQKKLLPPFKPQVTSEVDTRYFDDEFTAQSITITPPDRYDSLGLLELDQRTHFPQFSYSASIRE
ASSAY_METHOD_TEXT: AKT Kinase Assay (IMAP fluorescent polarisation) vs AKT2
TEST_PARAMETERS: activated AKT2, FAM Crosstide substrate
Where a name gives a salt, the structure may show the parent alone.

Recorded IC50, per entry:
compound="Cn1nc2c3oc(-c4ccccc4)c(-c4ccc(C5(N)CCC5)cc4)c(=O)c3ccn2c1=O [Example 64, hydrochloride]" measured_result="≤ 1000 nM"
compound="NC1(c2ccc(-c3c(-c4ccccc4)oc4c(N5CCNC(=O)C5)cccc4c3=O)cc2)CCC1 [Example 77]" measured_result="1000 to 10000 nM"
compound="NC1(c2ccc(-c3c(-c4ccccc4)oc4c(ccc5[nH]c(=O)[nH]c54)c3=O)cc2)CCC1 [Example 87]" measured_result="≤ 1000 nM"
compound="NC1(c2ccc(-c3c(-c4ccccc4)oc4c(ccc5cn[nH]c54)c3=O)cc2)CCC1 [Example 57]" measured_result="≤ 1000 nM"
compound="NC1(c2ccc(-c3c(-c4ccccc4)oc4c(CCCl)nccc4c3=O)cc2)CCC1 [Example 129]" measured_result="≤ 1000 nM"
compound="NC1(c2ccc(-c3c(-c4ccccc4)oc4cc(Br)ccc4c3=O)cc2)CCC1 [Example 13]" measured_result="1000 to 10000 nM"
compound="CS(=O)(=O)c1ccccc1-c1nccc2c(=O)c(-c3ccc(C4(N)CCC4)cc3)c(-c3ccccc3)oc12 [Example 119]" measured_result="1000 to 10000 nM"
compound="NC1(c2ccc(-c3c(-c4ccccc4)oc4c(ccn5c(=O)[nH]nc45)c3=O)cc2)COC1 [Example 68]" measured_result="1000 to 10000 nM"

Fill in the blank: the reported IC50 of NC1(c2ccc(-c3c(-c4ccccc4)oc4cc(F)ccc4c3=O)cc2)CCC1 [Example 37, hydrochloride] is ____.
1000 to 10000 nM

Given NC1(c2ccc(-c3c(-c4ccccc4)oc4c(cc(Cl)c5nc[nH]c54)c3=O)cc2)CCC1 [Example 44] , state its recorded IC50.
≤ 1000 nM

# query: IC50 of entry NC1(c2ccc(-c3c(-c4ccccc4)oc4c(ccn5c(=O)[nH]nc45)c3=O)cn2)CCC1 [Example 69]
1000 to 10000 nM

Dear colleague, I am looking for the recorded IC50 of the following compound: COc1cc2oc(-c3ccccc3)c(-c3ccc(C4(N)CCC4)cc3)c(=O)c2cc1C#N [Example 11]
1000 to 10000 nM

Returns the measured IC50 for the input compound. Input: Cn1cc(-c2cccc3c(=O)c(-c4ccc(C5(N)CCC5)cc4)c(-c4ccccc4)oc23)cn1 [Example 55, hydrochloride]
≤ 1000 nM

Field request: IC50 | item: COc1cccc2c(=O)c(-c3ccc(C4(N)CCC4)cc3)c(-c3ccccc3)oc12 [Example 16]
1000 to 10000 nM

Which value of IC50 has been reported for NC1(c2ccc(C3=C(c4ccccc4)c4ccccc4C3=O)cc2)CCC1 [Example 48, hydrochloride] in the records?
1000 to 10000 nM

May I ask what IC50 has been recorded for Cn1nc(Cl)c2ccc3c(=O)c(-c4ccc(C5(N)CCC5)cc4)c(-c4ccccc4)oc3c21 [Example 100, hydrochloride] ?
1000 to 10000 nM

Consider the compound CN1C(=O)COc2c1ccc1c(=O)c(-c3ccc(C4(N)CCC4)cc3)c(-c3ccccc3)oc21 [Example 112] and give its measured IC50.
≤ 1000 nM

Query (compound): NC1(c2ccc(-c3c(-c4ccccc4)oc4cc(-c5ccn[nH]5)ccc4c3=O)cc2)CCC1 [Example 17] ; field requested: IC50
1000 to 10000 nM

I would be grateful if you could share the reported IC50 for COc1ccccc1-c1nccc2c(=O)c(-c3ccc(C4(N)CCC4)cc3)c(-c3ccccc3)oc12 [Example 118] .
1000 to 10000 nM

Need IC50 of COc1cc2oc(-c3ccccc3)c(-c3ccc(C4(N)CCC4)cc3)c(=O)c2cc1C(N)=O [Example 10] , thanks.
≤ 1000 nM

Would you kindly share the measured IC50 for NC1(c2ccc(-c3c(-c4ccccc4)oc4c(Cl)nccc4c3=O)cc2)CCC1 [Example 42, hydrochloride] ?
≤ 1000 nM

====

EXPERIMENTAL_TARGET: AKT1 (Homo sapiens, UniProt P31749)
Sequence (P31749 whole entry): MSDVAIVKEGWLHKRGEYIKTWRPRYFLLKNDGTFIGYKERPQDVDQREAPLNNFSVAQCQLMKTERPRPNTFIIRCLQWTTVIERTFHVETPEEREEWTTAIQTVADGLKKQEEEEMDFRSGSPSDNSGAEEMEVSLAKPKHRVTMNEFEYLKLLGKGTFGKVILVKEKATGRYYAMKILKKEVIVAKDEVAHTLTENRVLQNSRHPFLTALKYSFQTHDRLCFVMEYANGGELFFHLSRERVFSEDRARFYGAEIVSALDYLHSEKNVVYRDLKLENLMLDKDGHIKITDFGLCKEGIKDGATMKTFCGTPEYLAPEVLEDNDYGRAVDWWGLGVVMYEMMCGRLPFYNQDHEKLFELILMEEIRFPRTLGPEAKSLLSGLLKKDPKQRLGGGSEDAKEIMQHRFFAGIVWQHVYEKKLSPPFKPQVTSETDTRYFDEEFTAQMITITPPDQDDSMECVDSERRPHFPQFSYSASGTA
ASSAY_METHOD_TEXT: AKT Kinase Assay (IMAP fluorescent polarisation) vs AKT1
TEST_PARAMETERS: activated AKT1, FAM Crosstide substrate
pIC50: −log10 of the molar value. Structures can show the parent of a compound that is named as a salt.
METRIC_NAME: pIC50

The cases that follow already have their pIC50 on record.
compound="NC1(c2ccc(-c3c(-c4ccccc4)oc4c(N5CCOCC5)cccc4c3=O)cc2)CCC1 [Example 72, hydrochloride]" measured_result="≥ 6.00"
compound="NC1(c2ccc(-c3c(-c4ccccc4)oc4c(-n5ccccc5=O)nccc4c3=O)cc2)CCC1 [Example 104, hydrochloride]" measured_result="5.00 to 6.00"
compound="Cc1n[nH]cc1-c1cccc2c(=O)c(-c3ccc(C4(N)CCC4)cc3)c(-c3ccccc3)oc12 [Example 73, hydrochloride]" measured_result="≥ 6.00"
compound="COc1nccc2c(=O)c(-c3ccc(C4(N)CCC4)cc3)c(-c3ccccc3)oc12 [Example 39, hydrochloride]" measured_result="≥ 6.00"
compound=COc1cc2c(=O)c(-c3ccc(C4(N)CCC4)cc3)c(-c3ccccc3)oc2cc1C measured_result="< 5.00"

Give the measured pIC50 of NC(=O)c1ccc2c(=O)c(-c3ccc(C4(N)CCC4)cc3)c(-c3ccccc3)oc2c1 .
< 5.00

Entry NC1(c2ccc(-c3c(-c4ccccc4)oc4c(-c5cccc(F)c5C(=O)O)nccc4c3=O)cc2)CCC1 : reported pIC50 = ?
5.00 to 6.00

// pIC50 lookup, key: COc1cc2oc(-c3ccccc3)c(-c3ccc(C4(N)CCC4)cc3)c(=O)c2cc1OC
5.00 to 6.00

====

EXPERIMENTAL_TARGET: AKT3 (Homo sapiens)
Sequence (Q9Y243 whole entry): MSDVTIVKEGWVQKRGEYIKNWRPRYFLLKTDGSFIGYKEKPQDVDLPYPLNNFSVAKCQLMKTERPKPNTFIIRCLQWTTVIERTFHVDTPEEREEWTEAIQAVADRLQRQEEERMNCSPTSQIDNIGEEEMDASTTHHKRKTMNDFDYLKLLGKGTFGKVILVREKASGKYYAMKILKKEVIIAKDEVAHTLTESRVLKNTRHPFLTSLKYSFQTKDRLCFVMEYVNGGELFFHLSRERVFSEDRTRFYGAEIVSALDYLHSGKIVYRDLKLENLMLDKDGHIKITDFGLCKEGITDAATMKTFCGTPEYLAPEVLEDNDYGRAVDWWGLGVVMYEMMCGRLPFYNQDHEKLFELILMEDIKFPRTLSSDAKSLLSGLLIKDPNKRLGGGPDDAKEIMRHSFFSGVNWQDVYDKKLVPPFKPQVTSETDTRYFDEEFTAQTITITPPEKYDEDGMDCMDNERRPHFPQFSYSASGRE
ASSAY_METHOD_TEXT: AKT Kinase Assay (IMAP fluorescent polarisation) vs AKT3
TEST_PARAMETERS: activated AKT3, FAM Crosstide substrate
METRIC_NAME: IC50

cpd_smiles=NC1(c2ccc(-c3c(-c4ccccc4)oc4cc5c(cc4c3=O)OCCO5)cc2)CCC1 experimental_target="AKT3 (Homo sapiens)" metric_name=IC50 measured_result="> 10 µM"
cpd_smiles=CCc1nccc2c(=O)c(-c3ccc(C4(N)CCC4)cc3)c(-c3ccccc3)oc12 experimental_target="AKT3 (Homo sapiens)" metric_name=IC50 measured_result="> 10 µM"
cpd_smiles=NC1(c2ccc(-c3c(-c4ccccc4)oc4c(ccc5nn[nH]c54)c3=O)cc2)CCC1 experimental_target="AKT3 (Homo sapiens)" metric_name=IC50 measured_result="> 10 µM"
cpd_smiles=COc1ccc2c(=O)c(-c3ccc(C4(N)CCC4)cc3)c(-c3ccccc3)oc2c1Br experimental_target="AKT3 (Homo sapiens)" metric_name=IC50 measured_result="1 to 10 µM"
cpd_smiles=NC1(c2ccc(-c3c(-c4ccccc4)oc4ccc(OC(F)(F)F)cc4c3=O)cc2)CCC1 experimental_target="AKT3 (Homo sapiens)" metric_name=IC50 measured_result="> 10 µM"

Which IC50 is reported for this molecule? Cc1nn(C)c(C)c1-c1nccc2c(=O)c(-c3ccc(C4(N)CCC4)cc3)c(-c3ccccc3)oc12
> 10 µM

// IC50 lookup, key: NC1(c2ccc(-c3c(-c4ccccc4)oc4c(CCCl)nccc4c3=O)cc2)CCC1
1 to 10 µM

What IC50 value was documented for this molecule, Nc1ccc2c(=O)c(-c3ccc(C4(N)CCC4)cc3)c(-c3ccccc3)oc2c1 ?
> 10 µM

====

Entries and their measured IC50 follow.
EXPERIMENTAL_TARGET: AKT1 (Homo sapiens)
Construct: purchased SignalChem
ASSAY_METHOD_TEXT: AKT Kinase Assay (IMAP fluorescent polarisation) vs AKT1
Assay type: biochemical
TEST_PARAMETERS: activated AKT1, FAM Crosstide substrate
Counter-ions that a name gives are not always drawn.

Worked cases, IC50 given:
compound=CS(=O)(=O)c1ccccc1-c1nccc2c(=O)c(-c3ccc(C4(N)CCC4)cc3)c(-c3ccccc3)oc12 experimental_target="AKT1 (Homo sapiens)" metric_name=IC50 measured_result="1000 to 10000 nM"
compound=COc1cc2c(=O)c(-c3ccc(C4(N)CCC4)cc3)c(-c3ccccc3)oc2cc1C#N experimental_target="AKT1 (Homo sapiens)" metric_name=IC50 measured_result="> 10000 nM"
compound=NC1(c2ccc(-c3c(-c4ccccc4)oc4ccc(Br)cc4c3=O)cc2)CCC1 experimental_target="AKT1 (Homo sapiens)" metric_name=IC50 measured_result="1000 to 10000 nM"
compound="NC1(c2ccc(-c3c(-c4ccccc4)oc4c(ccc5c(I)n[nH]c54)c3=O)cc2)CCC1 [Example 97, hydrochloride]" experimental_target="AKT1 (Homo sapiens)" metric_name=IC50 measured_result="≤ 1000 nM"
compound=COc1ccc2c(=O)c(-c3ccc(C4(N)CCC4)cc3)c(-c3ccccc3)oc2c1OC experimental_target="AKT1 (Homo sapiens)" metric_name=IC50 measured_result="1000 to 10000 nM"

Now look at this entry.
Entry COCCn1ccc2c(=O)c(-c3ccc(C4(N)CCC4)cc3)c(-c3ccccc3)oc2c1=O : reported IC50 = ?
> 10000 nM

Origin of values: patent US8546376B2
